Cited source: patent US20230138930A1

Molecular target: T1, human TF on cells (MDA-MB-231, BxPC-3 and other tumor cells with high TF expression) (human, UniProt P13726 33-295)
T1 construct: whole, on cells; Endogenous expression on tumor cell lines; also called cell surface TF
Experiment: flow cytometry on MDA-MB-231 cells, antibody at 10 µg/mL
RECORDED METRIC: MFI (MFI)
Give just the number in MFI; leave the unit off.

The cases that follow already have their MFI on record.
Respond only with MFI recorded for TF-mAb-H32 (antibody, V domains shown) VH: QVQLVQSGAEVKKPGASVKVSCKASGYSFISYWMNWVRQAPGQGLEWIGMIYPADSETRLNQKFKDRATLTVDKSTSTAYMELSSLRSEDTAVYYCAREDYGSSDYWGQGTTVTVSS VL: EIVLTQSPATLSLSPGERATLSCSASSSVSYMNWYQQKPGQAPRIWIYGISNLASGIPARFSGSGSGTDFTLTISSLEPEDFAVYYCQQKSSFPWTFGGGTKVEIK
3010

Return reported MFI. Input binder: TF-mAb-H46 (antibody, V domains shown) VH: EVQLVQSGAEVKKPGESLKISCKGSGYSFTSYWMNWVKQMPGKGLEWMGMIYPADSETRLNQKFKDKATLSVDKSISTAYLQWSSLKASDTAMYYCAREDYGSSDYWGQGTTVTVSS VL: EIVLTQSPDFQSVTPKEKVTITCSASSSVSYMNWYQQKPDQSPKIWIYGISNLASGVPSRFSGSGSGTDFTLTINSLEAEDAATYYCQQKSSFPWTFGGGTKVEIK
3410

Supply reported MFI belonging to this binder: TF-mAb-H29 (antibody, V domains shown) VH: EVQLVQSGAEVKKPGESLKISCKGSGYSFTSYWMNWVRQMPGKGLEWMGMIYPADSETRLNQKFKDQATLSVDKSISTAYLQWSSLKASDTAMYYCAREDYGSSDYWGQGTTVTVSS VL: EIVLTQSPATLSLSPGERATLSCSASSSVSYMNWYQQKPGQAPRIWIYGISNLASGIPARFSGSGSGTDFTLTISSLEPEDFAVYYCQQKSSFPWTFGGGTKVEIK
3580

Input TF-mAb-H40 (antibody, V domains shown) VH: EVQLVQSGAEVKKPGESLKISCKGSGYSFTSYWMNWVRQMPGKGLEWMGMIYPADSETRLNQKFKDKATLSVDKSISTAYLQWSSLKASDTAMYYCAREDYGSSDYWGQGTTVTVSS VL: DIQLTQSPSSLSASVGDRVTITCSASSSVSYMNWYQQKPGKSPKIWIYGISNLASGVPSRFSGSGSGTDFTLTISSLQPEDFATYYCQQKSSFPWTFGGGTKVEIK , output reported MFI.
3310

Return value of MFI for input TF-mAb-H45 (antibody, V domains shown) VH: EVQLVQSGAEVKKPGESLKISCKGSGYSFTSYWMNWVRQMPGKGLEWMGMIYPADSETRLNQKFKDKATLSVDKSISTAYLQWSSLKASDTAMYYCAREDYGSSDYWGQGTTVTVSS VL: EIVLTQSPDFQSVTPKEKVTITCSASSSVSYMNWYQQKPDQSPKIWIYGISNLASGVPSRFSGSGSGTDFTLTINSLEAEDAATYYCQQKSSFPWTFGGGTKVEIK , no commentary.
3480

---
Tell me its MFI given TF-mAb-H30 (antibody, V domains shown) VH: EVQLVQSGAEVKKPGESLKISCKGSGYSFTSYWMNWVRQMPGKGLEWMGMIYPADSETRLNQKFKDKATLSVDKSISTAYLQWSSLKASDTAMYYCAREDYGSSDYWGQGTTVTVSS VL: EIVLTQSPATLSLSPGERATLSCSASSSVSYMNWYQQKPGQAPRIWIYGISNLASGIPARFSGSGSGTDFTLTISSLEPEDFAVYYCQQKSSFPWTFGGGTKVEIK as the entry.
3240

Using known records, supply MFI for TF-mAb-H43 (antibody, V domains shown) VH: QVQLVQSGSELKKPGASVKVSCKASGYSFISYWMNWVRQAPGQGLEWIGMIYPADSETRLNQKFKDRAVLSVDKSVSTAYLQICSLKAEDTAVYYCAREDYGSSDYWGQGTTVTVSS VL: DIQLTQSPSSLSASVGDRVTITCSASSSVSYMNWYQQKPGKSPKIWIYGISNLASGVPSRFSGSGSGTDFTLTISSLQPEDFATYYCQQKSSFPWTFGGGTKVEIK
3300

Report MFI for TF-mAb-H42 (antibody, V domains shown) VH: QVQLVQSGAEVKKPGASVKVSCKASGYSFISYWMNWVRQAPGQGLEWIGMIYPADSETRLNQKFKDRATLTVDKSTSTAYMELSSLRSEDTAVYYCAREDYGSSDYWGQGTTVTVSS VL: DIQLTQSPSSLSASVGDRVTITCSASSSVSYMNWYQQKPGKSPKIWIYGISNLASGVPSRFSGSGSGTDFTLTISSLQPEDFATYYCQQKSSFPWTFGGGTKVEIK
3350

Item TF-mAb-H31 (antibody, V domains shown) VH: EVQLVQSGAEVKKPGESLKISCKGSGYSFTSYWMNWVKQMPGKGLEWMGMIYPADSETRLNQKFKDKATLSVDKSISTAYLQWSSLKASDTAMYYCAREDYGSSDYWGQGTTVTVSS VL: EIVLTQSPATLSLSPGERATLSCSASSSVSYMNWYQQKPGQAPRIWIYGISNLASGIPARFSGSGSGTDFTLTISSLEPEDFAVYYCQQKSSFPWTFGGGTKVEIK : provide MFI
3470

Read the entry TF-mAb-H36 (antibody, V domains shown) VH: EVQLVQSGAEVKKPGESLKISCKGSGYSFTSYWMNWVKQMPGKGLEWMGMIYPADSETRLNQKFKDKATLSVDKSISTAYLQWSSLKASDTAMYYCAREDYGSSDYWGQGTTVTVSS VL: EIVLTQSPATLSLSPGERATLSCSASSSVSYMNWYQQKPGQSPRIWIYGISNLASGVPARFSGSGSGTDFTLTISSLEPEDFAVYYCQQKSSFPWTFGGGTKVEIK and write its reported MFI.
3090

Quickly give me recorded MFI for TF-mAb-H38 (antibody, V domains shown) VH: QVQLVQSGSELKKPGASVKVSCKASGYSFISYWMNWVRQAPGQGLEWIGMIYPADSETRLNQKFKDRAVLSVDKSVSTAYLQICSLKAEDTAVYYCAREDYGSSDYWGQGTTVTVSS VL: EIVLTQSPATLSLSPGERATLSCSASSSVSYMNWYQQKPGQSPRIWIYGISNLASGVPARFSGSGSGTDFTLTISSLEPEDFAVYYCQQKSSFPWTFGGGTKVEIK
3150

Specify MFI for TF-mAb-H44 (antibody, V domains shown) VH: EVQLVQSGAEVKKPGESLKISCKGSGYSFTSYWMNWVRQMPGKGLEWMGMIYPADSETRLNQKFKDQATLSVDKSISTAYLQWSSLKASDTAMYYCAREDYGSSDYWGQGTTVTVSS VL: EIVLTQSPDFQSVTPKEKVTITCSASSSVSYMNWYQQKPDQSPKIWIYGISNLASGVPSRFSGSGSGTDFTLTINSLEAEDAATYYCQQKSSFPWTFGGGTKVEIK and stop.
3430
